# test-details: Metabolic stability in human liver microsomes
# condition-context: hepatic in vivo blood clearance calculated with well stirred liver model; 1 µM compound; '(stable)' given beside < 0.01
Listed here are molecules together with their documented CLblood, human microsomes.
reported-endpoint: CLblood, human microsomes (mL/min/kg)

CS(=O)(=O)N1CC(Nc2nc(N3CCC(C4(N)CC4)CC3)c3cnn(-c4cccc(C(F)F)c4)c3n2)C1 [II-20]: 0.67
CC(C)(O)C1CCN(c2nc(N[C@H]3C[C@](C)(O)C3)nc3c2cnn3-c2cccc(C(F)(F)F)c2)CC1 [Example I-91]: 0.67
CS(=O)(=O)[C@H]1C[C@H](Nc2nc(N3C[C@H](O)[C@@H](F)C3)c3cnn(-c4cccc(C(F)(F)F)c4)c3n2)C1 [Example I-94]: 2.67
CC(C)(O)C1CCN(c2nc(NC3CCS(=O)(=O)CC3)nc3c2cnn3-c2cccc(C(F)(F)F)c2)CC1 [Example I-5]: 1.5

====

In this section, each of the compounds is paired with its reported Fmax, human microsomes.
# test-details: Metabolic stability in human liver microsomes
# condition-context: maximal oral bioavailability calculated with well stirred liver model; 1 µM compound, 0.5 mg/mL protein; '(stable)' given beside 100
reported-endpoint: Fmax, human microsomes (%)

CS(=O)(=O)N1CC(Nc2nc(N3CCC(C4(N)CC4)CC3)c3cnn(-c4cccc(C(F)F)c4)c3n2)C1: 97
CC(C)(N)C1CN(c2nc(NC3CCS(=O)(=O)CC3)nc3c2cnn3-c2cccc(C(F)(F)F)c2)C1: 96
O[C@@H]1CN(c2nc(N[C@H]3C[C@H](O)C3)nc3c2cnn3-c2cccc(C(F)(F)F)c2)C[C@H]1F: 57
CC(C)(O)C1CCN(c2nc(N[C@H]3CC[C@@H](O)C3)nc3c2cnn3-c2cccc(C(F)(F)F)c2)CC1: 68
O=S1(=O)C[C@H](Nc2nc(N3CC(N4CCOCC4)C3)c3cnn(-c4cccc(C(F)(F)F)c4)c3n2)[C@@H](O)C1 (relative stereo): 97
CC(C)(N)C1CCN(c2nc(N[C@@H]3CNC(=O)C3)nc3c2cnn3-c2cccc(C(F)(F)F)c2)CC1: 87
CS(=O)(=O)[C@H]1C[C@H](Nc2nc(N3CC[C@@H](O)C3)c3cnn(-c4cccc(C(F)F)c4)c3n2)C1: 95

====

# test-details: Metabolic stability in human liver microsomes
# condition-context: maximal oral bioavailability calculated with well stirred liver model; 1 µM compound, 0.5 mg/mL protein; '(stable)' given beside 100
reported-endpoint: Fmax, human microsomes

C[C@H]1CN(c2nc(N[C@H]3C[C@H](S(C)(=O)=O)C3)nc3c2cnn3-c2cccc(C(F)F)c2)C[C@@H]1O (relative stereo) [II-17-1]: 93%
O[C@@H]1CN(c2nc(N[C@H]3C[C@H](O)C3)nc3c2cnn3-c2cccc(C(F)(F)F)c2)C[C@H]1O: 73%
O[C@H]1C[C@@H](Nc2nc(N3CC(N4CCOCC4)C3)c3cnn(-c4cccc(C(F)F)c4)c3n2)C1: 100 (stable) %
CS(=O)(=O)N1CC(Nc2nc(N3CCC(C4(N)CC4)CC3)c3cnn(-c4cccc(OC(F)F)c4)c3n2)C1: 89%
O=C1CN(C2CN(c3nc(N[C@H]4C[C@H](O)C4)nc4c3cnn4-c3cccc(C(F)F)c3)C2)CCN1: 100 (stable) %
O[C@@H]1CN(c2nc(N[C@H]3C[C@@H](O)C3)nc3c2cnn3-c2cccc(C(F)(F)F)c2)C[C@H]1F: 72%
C[C@H]1CN(c2nc(N[C@H]3C[C@H](S(C)(=O)=O)C3)nc3c2cnn3-c2cccc(C(F)F)c2)C[C@@H]1O (single isomer, unassigned) [II-17-2]: 79%
CC(C)(O)C1CCN(c2nc(NC3CN(S(C)(=O)=O)C3)nc3c2cnn3-c2cccc(C(F)F)c2)CC1: 81%
CN1CC[C@H](Nc2nc(N3CCC(C(C)(C)O)CC3)c3cnn(-c4cccc(C(F)(F)F)c4)c3n2)C1: 62%
O=S1(=O)CCC(Nc2nc(N3CC(CN4CCOCC4)C3)c3cnn(-c4cccc(C(F)(F)F)c4)c3n2)CC1: 72%
CC(C)(O)CC1CN(c2nc(N[C@H]3C[C@H](S(C)(=O)=O)C3)nc3c2cnn3-c2cccc(C(F)F)c2)C1: 82%
CC(C)(N)C1CCN(c2nc(NC3CCS(=O)(=O)CC3)nc3c2cnn3-c2cccc(C(F)(F)F)c2)CC1: 81%
CC(C)(O)CC1CN(c2nc(NC3CCS(=O)(=O)CC3)nc3c2cnn3-c2cccc(C(F)F)c2)C1: 100 (stable) %
C[C@]1(N)C[C@@H](Nc2nc(N3CCOCC3)c3cnn(-c4cccc(C(F)(F)F)c4)c3n2)C1: 100 (stable) %

====

# test-details: Metabolic stability in human liver microsomes
# condition-context: hepatic in vivo blood clearance calculated with well stirred liver model; 1 µM compound; '(stable)' given beside < 0.01
Measured CLblood, human microsomes of individual entries
reported-endpoint: CLblood, human microsomes (mL/min/kg)

CCC1(O)CN(c2nc(N[C@H]3C[C@H](S(C)(=O)=O)C3)nc3c2cnn3-c2cccc(C(F)(F)F)c2)C1: 6
CC(C)(O)C1CCN(c2nc(N[C@H]3CN4CCC3CC4)nc3c2cnn3-c2cccc(C(F)(F)F)c2)CC1: 5.33
CC1(O)CCN(C2CN(c3nc(N[C@H]4C[C@@](C)(O)C4)nc4c3cnn4-c3cccc(C(F)(F)F)c3)C2)CC1: 2.17
CC(C)(O)C1CCN(c2nc(N[C@@H]3CNC(=O)C3)nc3c2cnn3-c2cccc(C(F)(F)F)c2)CC1: 5.33

====

This listing pairs molecules with measured CLblood, human microsomes.
# test-details: Metabolic stability in human liver microsomes
# condition-context: hepatic in vivo blood clearance calculated with well stirred liver model; 1 µM compound; '(stable)' given beside < 0.01
reported-endpoint: CLblood, human microsomes (L/h/kg)

CCS(=O)(=O)N1CC(Nc2nc(N3CCC(C(C)(C)O)CC3)c3cnn(-c4cccc(C(F)F)c4)c3n2)C1 [II-31]: 0.29
CC1(N2CCOCC2)CN(c2nc(N[C@H]3C[C@H](S(C)(=O)=O)C3)nc3c2cnn3-c2cccc(C(F)F)c2)C1 [II-21]: 0.07
CC1(N2CCOCC2)CN(c2nc(N[C@H]3C[C@@H](O)C3)nc3c2cnn3-c2cccc(C(F)(F)F)c2)C1 [Example I-76]: 0.30

====

# target: human IRAK4 (Homo sapiens, UniProt Q9NWZ3)
# Sequence (Q9NWZ3 whole entry): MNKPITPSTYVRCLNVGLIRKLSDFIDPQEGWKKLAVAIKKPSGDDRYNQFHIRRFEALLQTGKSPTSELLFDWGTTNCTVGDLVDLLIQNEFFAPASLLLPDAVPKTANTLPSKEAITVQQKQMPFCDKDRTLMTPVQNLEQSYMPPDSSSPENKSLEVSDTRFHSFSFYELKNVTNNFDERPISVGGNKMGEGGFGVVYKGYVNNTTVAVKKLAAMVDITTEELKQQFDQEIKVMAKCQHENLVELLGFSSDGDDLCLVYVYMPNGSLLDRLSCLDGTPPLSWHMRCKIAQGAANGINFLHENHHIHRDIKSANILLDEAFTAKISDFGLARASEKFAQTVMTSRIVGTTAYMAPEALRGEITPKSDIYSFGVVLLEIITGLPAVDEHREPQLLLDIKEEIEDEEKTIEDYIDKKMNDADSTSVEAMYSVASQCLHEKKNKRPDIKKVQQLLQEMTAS
reported-endpoint: IC50 (nM)

CS(=O)(=O)CC1CN(c2nc(N[C@@H]3CNC(=O)C3)nc3c2cnn3-c2cccc(C(F)(F)F)c2)C1: 16.5
CC(C)(O)CC1CN(c2nc(N[C@@H]3CNC(=O)C3)nc3c2cnn3-c2cccc(C(F)(F)F)c2)C1: 3.85
O=C1COCCN1C1CN(c2nc(N[C@H]3C[C@@H](O)C3)nc3c2cnn3-c2cccc(C(F)(F)F)c2)C1: 3.65
CS(=O)(=O)[C@H]1C[C@H](Nc2nc(N3CCC(O)CC3)c3cnn(-c4cccc(C(F)(F)F)c4)c3n2)C1: 11.2
C[C@]1(N)C[C@@H](Nc2nc(N3CCOCC3)c3cnn(-c4cccc(C(F)(F)F)c4)c3n2)C1: 23
CCS(=O)(=O)N1CC(Nc2nc(N3C[C@@H](O)[C@H](O)C3)c3cnn(-c4cccc(C(F)(F)F)c4)c3n2)C1: 48.3
O[C@@H]1CC[C@H]1Nc1nc(N2CC(N3CCOCC3)C2)c2cnn(-c3cccc(C(F)(F)F)c3)c2n1 (relative stereo): 14

====

# test-details: Metabolic stability in human liver microsomes
# condition-context: hepatic in vivo blood clearance calculated with well stirred liver model; 1 µM compound; '(stable)' given beside < 0.01
reported-endpoint: CLblood, human microsomes (mL/min/kg)

C[C@@]1(O)CCN(c2nc(N[C@H]3C[C@H](S(C)(=O)=O)C3)nc3c2cnn3-c2cccc(C(F)F)c2)C1: 1.67
O=S1(=O)CCC(Nc2nc(N3CC(N4CCOCC4)C3)c3cnn(-c4cccc(C(F)F)c4)c3n2)CC1: 2.5
CC(C)(N)C1CN(c2nc(NC3CCS(=O)(=O)CC3)nc3c2cnn3-c2cccc(C(F)(F)F)c2)C1: 0.83
O=C(CC1CN(c2nc(NC3CCS(=O)(=O)CC3)nc3c2cnn3-c2cccc(C(F)F)c2)C1)N1CCOCC1: 7

====

# test-details: Metabolic stability in human liver microsomes
# condition-context: maximal oral bioavailability calculated with well stirred liver model; 1 µM compound, 0.5 mg/mL protein; '(stable)' given beside 100
Fmax, human microsomes reference
reported-endpoint: Fmax, human microsomes (%)

C[C@]1(O)C[C@@H](Nc2nc(N3C[C@@H](O)[C@H](O)C3)c3cnn(-c4cccc(C(F)(F)F)c4)c3n2)C1 [Example I-107]: 96
O[C@H]1C[C@H](Nc2nc(N3CC(N4CCOCC4)C3)c3cnn(-c4cccc(C(F)(F)F)c4)c3n2)C1 [Example I-74]: 91
CC(C)(O)C1CCN(c2nc(N[C@H]3C[C@@]4(CCN4)C3)nc3c2cnn3-c2cccc(C(F)F)c2)CC1 [II-18]: 93
C[C@]1(O)C[C@H](Nc2nc(N3CC(N4CCOCC4)C3)c3cnn(-c4cccc(C(F)(F)F)c4)c3n2)C1 [Example I-77]: 72
CC1(O)CCN(C2CN(c3nc(N[C@H]4C[C@H](S(C)(=O)=O)C4)nc4c3cnn4-c3cccc(C(F)(F)F)c3)C2)CC1 [Example I-61]: 77
CCC1(O)CN(c2nc(N[C@@H]3CNC(=O)C3)nc3c2cnn3-c2cccc(C(F)(F)F)c2)C1 [Example I-3-1]: 65
O=S1(=O)CCC(Nc2nc(N3CC(N4CCOCC4)C3)c3cnn(-c4cccc(C(F)(F)F)c4)c3n2)CC1 [Example I-23]: 87
